Every entry's value here was drawn from patent US20220112288A1.

Quick reference: Response of the listed items.
Molecular target: T1, Recombinant human CD4 (R&D Systems, Cat. 10327-CD) (human, UniProt P01730 26-390, limits assumed)
T1 construct: Bought soluble recombinant protein used as analyte at 100 nM; also called huCD4
Assay: BLI (Octet Red384), non-clonal supernatant on AMC sensor, 100 nM human CD4

binder	Response
75110_08D24A (antibody, V domains shown, Non-clonal AlivaMab Mouse Kappa hybridoma supernatant, captured by anti-mouse IgG Fc (human V regions, mouse Fc)) VH: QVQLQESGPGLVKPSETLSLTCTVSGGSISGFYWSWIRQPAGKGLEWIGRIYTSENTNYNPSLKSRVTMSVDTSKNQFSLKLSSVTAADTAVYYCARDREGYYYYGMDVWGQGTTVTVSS VL: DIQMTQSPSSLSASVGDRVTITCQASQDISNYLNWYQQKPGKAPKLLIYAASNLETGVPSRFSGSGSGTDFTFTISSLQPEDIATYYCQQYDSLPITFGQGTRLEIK	0.21
75110_08F20A (antibody, V domains shown, Non-clonal AlivaMab Mouse Kappa hybridoma supernatant, captured by anti-mouse IgG Fc (human V regions, mouse Fc)) VH: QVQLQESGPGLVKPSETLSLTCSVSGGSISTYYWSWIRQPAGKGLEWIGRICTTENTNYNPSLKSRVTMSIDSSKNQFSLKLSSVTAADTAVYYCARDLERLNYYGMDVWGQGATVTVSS VL: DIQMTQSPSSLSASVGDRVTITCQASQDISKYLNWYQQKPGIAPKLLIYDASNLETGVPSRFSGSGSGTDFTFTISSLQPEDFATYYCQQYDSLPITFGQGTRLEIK	0.32
75110_05E13A (antibody, V domains shown, Non-clonal AlivaMab Mouse Kappa hybridoma supernatant, captured by anti-mouse IgG Fc (human V regions, mouse Fc)) VH: EVQLVESGGDLVKPGGSLRLSCAASGFSFSNAWMSWVRQAPGKGLEWVGRVESKTDGGTTDYAAPVKDRFTISRDDSKYTLYLQMNSLKTEDSAVYYCTIGGGFGLELYGFFDYWGQGTLVTVSS VL: DIQMTQSPSTLSASVGDRVTITCRASQSISSWLAWYQQKPGKAPMLLIYKASSLESGVPSRFSGSGSGTEFTLTISSLQPDDFATYYCLQYNSYYTFGQGTKLEIK	0.33
75110_08K12A (antibody, V domains shown, Non-clonal AlivaMab Mouse Kappa hybridoma supernatant, captured by anti-mouse IgG Fc (human V regions, mouse Fc)) VH: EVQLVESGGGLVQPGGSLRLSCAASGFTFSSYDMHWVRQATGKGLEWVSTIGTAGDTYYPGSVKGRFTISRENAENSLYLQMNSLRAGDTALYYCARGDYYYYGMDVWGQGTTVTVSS VL: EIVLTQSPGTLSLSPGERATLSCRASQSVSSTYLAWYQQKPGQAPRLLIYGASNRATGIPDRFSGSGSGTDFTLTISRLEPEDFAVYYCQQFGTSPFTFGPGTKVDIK	0.11
75110_06G04A (antibody, V domains shown, Non-clonal AlivaMab Mouse Kappa hybridoma supernatant, captured by anti-mouse IgG Fc (human V regions, mouse Fc)) VH: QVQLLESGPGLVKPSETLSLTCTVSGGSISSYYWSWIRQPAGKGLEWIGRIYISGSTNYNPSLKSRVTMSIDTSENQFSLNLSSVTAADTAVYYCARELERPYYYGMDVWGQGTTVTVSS VL: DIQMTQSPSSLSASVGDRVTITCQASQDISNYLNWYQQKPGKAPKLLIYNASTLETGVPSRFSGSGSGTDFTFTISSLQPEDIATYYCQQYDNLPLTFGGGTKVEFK	0.12
